FYI, the data here is from ChEMBL document CHEMBL1152484.

# procedure_details: Inhibition of AP-1/NF-kappaB transfected in human jurkat T cells assessed as inhibition of transcriptional activation
# Type: cell-based
endpoint_name: IC50 (nM)

Some entries whose results are on file:
                            compound_string  readout_number
0  CCOC(=O)c1cnc(C(=O)c2ccco2)nc1NN1C(=O)C=C(C)C1=O             200
1  CCOC(=O)c1cnc(C(F)(F)F)nc1NN1C(=O)C=C(C)C1=O            1000
2  CC1=CC(=O)N(Nc2nc(-c3cccs3)ncc2-c2cc(C)no2)C1=O             300

A = CCOC(=O)c1cnc(-c2cc3ccccc3s2)nc1NN1C(=O)C=C(C)C1=O
B = CCOC(=O)c1cnc(Oc2ccccc2)nc1NN1C(=O)C=C(C)C1=O
Endpoint returns the identifier whose IC50 is numerically larger, either A or B . Mark your selection by writing its label.
B
(B: 15000 nM, A: 4000 nM)
